Exercise: state measured melting point for each of the compounds provided.

I would be grateful if you could provide melting point for each of the following entries.
1. O=C(O)C=CC(=O)c1ccc(F)cc1
2. O=c1[nH]c(C(F)(F)F)c(Br)c(=O)[nH]1
3. CC(=O)Nc1nc(CCc2ccc(NC(NC(=O)OC(C)(C)C)NC(=O)OC(C)(C)C)cc2)cs1
4. O=C(Cl)C(=O)c1cn(Cc2ccc(F)cc2)c2ccc(OCc3ccccc3)cc12

// result
["130 to 132 °C", "236 to 240 °C", "276 °C", "155 to 158 °C"]

Hey, can you go through the list below and give me melting point for every item?
1. COC(=O)CCCCCNC(=O)C(COS(C)(=O)=O)NS(=O)(=O)c1ccc(Cl)cc1 (racemic)
2. COC(=O)C1=CC[C@H]2[C@@](C=O)(CCC3C(C)(C)CCC[C@@]32C)C(=O)C1 (some centres not stated)
3. Cc1ccccc1C(Oc1cc(OCc2ccc3ocnc3c2)ccc1C#N)C(=O)O (racemic)
4. CC(=O)NCc1ccc2c(c1)N(C1CCN(CCc3ccccc3F)CC1)CC2

// result
81 to 84 °C
86 to 88 °C
189 to 191 °C
160 to 161 °C

For each listed entry, give its melting point.
1. CN1CCN(C(=O)c2ccccc2C(c2ccc(O)cc2)c2ccc(O)cc2)CC1
2. CCOC(=O)N1CCN(C(=O)/C=C/S(=O)(=O)c2ccccc2)CC1
3. N#Cc1nn(-c2c(Cl)cc(C(F)(F)F)cc2Cl)c(N)c1-c1ccoc1Cl
4. O=C1c2c(O)ccc(O)c2C(=O)c2c(NCCN3CCC(O)CC3)ccc(NCCN3CCC(O)CC3)c21
5. C=CCCCCCCCCNC(=O)N[C@H]1CCCNC(=O)C1
6. Cc1nn(Cc2cccc(Cl)c2)cc1C(=O)CC(=O)C(=O)O
7. COC(=O)c1cc(OC)cc(-c2ccc(N(C)C)cc2)n1

// result
1: 226 to 231 °C; 2: 116 to 117 °C; 3: 153 °C; 4: 241 to 244 °C; 5: 98 to 99 °C; 6: 183 to 184 °C; 7: 157 to 158 °C

# batch size: 2; output melting point per entry
1. COc1nnc2c(=O)c3ccccc3ccn12
2. O=C(Nc1cccc(S(=O)(=O)NCc2cccnc2)c1)c1cnn2c(C(F)(F)F)cc(-c3ccc(C(F)(F)F)cc3)nc12

// result
1: 149 to 150 °C; 2: 257 °C

###

readout_name: melting point

{"compound": "Cc1cnc(C(=O)c2[nH]c3cc(Cl)ccc3c2CC(=O)O)c(C)c1", "melting point": "199 to 200 °C"}
{"compound": "O=C(O)c1ccccc1Oc1ccc2ccccc2c1", "melting point": "139 to 142 °C"}
{"compound": "O=C(O)C1CC(=O)N(Cc2ccccc2)C1c1c(Cl)cccc1Cl (stereo not given)", "melting point": "179 to 181 °C"}
{"compound": "C[C@H]([C@](O)(Cn1cncn1)c1ccc(F)cc1F)S(=O)(=O)N1CCOCC1", "melting point": "157 to 158 °C"}

Note: attention shifts to another entry.
// query Which melting point reading was recorded for the compound CC(c1ncccn1)C(O)(Cn1cncn1)c1ccc(F)cc1F (stereo not given) ?
// result 193 to 195 °C
